# Tested on: SK-OV-3 cells
# testDetails: SRB cell proliferation assay, SK-OV-3
# Format: cell-based, human
# testConditions: Homo sapiens, SK-OV-3, 72 h
observedProperty: pIC50
Please report pIC50 as the negative decimal logarithm of the molar concentration, giving only the number.

Examples from the recorded data:
compound	observedProperty	reportedValue
C#CC(=O)OC[C@]12CC[C@@H](C(=C)COP(=O)(OCC)OCC)C1C1CCC3[C@@]4(C)CC[C@H](O)C(C)(C)C4CC[C@@]3(C)[C@]1(C)CC2 (stereo partly shown)	pIC50	6.55
C#CC(=O)OC[C@]12CC[C@@H](/C(C)=C/P(=O)(OCC)OCC)C1C1CCC3[C@@]4(C)CC[C@H](O)C(C)(C)C4CC[C@@]3(C)[C@]1(C)CC2 (stereo partly shown)	pIC50	6.54
C#CC(=O)O[C@H]1CC[C@@]2(C)C(CC[C@]3(C)C2CCC2C4[C@H](C(=C)C)CC[C@]4(COP(=O)(OCC)OCC)CC[C@]23C)C1(C)C (stereo partly shown)	pIC50	5.97

Next item in the queue.
May I ask what pIC50 has been recorded for C#CC(=O)OC[C@]12CC[C@@H](C(=C)C)C1C1CCC3[C@@]4(C)CC[C@H](OP(=O)(OCC)OCC)C(C)(C)C4CC[C@@]3(C)[C@]1(C)CC2 (stereo partly shown) ?
6.54

###

# Test system: OVCAR-3 cells
# testDetails: SRB cell proliferation assay, OVCAR-3
# Type: cell-based, human
# testConditions: Homo sapiens, OVCAR-3, 72 h
Reported IC50 is given for each of the following molecules.
Give your result as the value with the unit written after it.

Examples from the recorded data:
molecule	reportedValue
C#CC(=O)OC[C@]12CC[C@@H](C(=C)C)C1C1CCC3[C@@]4(C)CC[C@H](OP(=O)(OCC)OCC)C(C)(C)C4CC[C@@]3(C)[C@]1(C)CC2 (stereo partly shown) [Compound 3]	900 nM
C#CC(=O)OC[C@]12CC[C@@H](/C(C)=C/P(=O)(OCC)OCC)C1C1CCC3[C@@]4(C)CC[C@H](O)C(C)(C)C4CC[C@@]3(C)[C@]1(C)CC2 (stereo partly shown) [Compound 6]	680 nM
C#CC(=O)O[C@H]1CC[C@@]2(C)C(CC[C@]3(C)C2CCC2C4[C@H](C(=C)C)CC[C@]4(COP(=O)(OCC)OCC)CC[C@]23C)C1(C)C (stereo partly shown) [Compound 4]	1880 nM

Next item in the queue.
May I ask what IC50 has been recorded for C#CC(=O)OC[C@]12CC[C@@H](C(=C)COP(=O)(OCC)OCC)C1C1CCC3[C@@]4(C)CC[C@H](O)C(C)(C)C4CC[C@@]3(C)[C@]1(C)CC2 (stereo partly shown) [Compound 5] ?
540 nM

###

# System: SK-OV-3 cells
# testDetails: SRB cell proliferation assay, SK-OV-3
# Format: cell-based, human
# testConditions: Homo sapiens, SK-OV-3, 120 h
Reported IC50 is given for each of the following compounds.
Quick reminder: number only, in nM, skip the unit.

May I ask what IC50 has been recorded for C#CC(=O)OC[C@]12CC[C@@H](/C(C)=C/P(=O)(OCC)OCC)C1C1CCC3[C@@]4(C)CC[C@H](O)C(C)(C)C4CC[C@@]3(C)[C@]1(C)CC2 (stereo partly shown) [Compound 6] ?
260

Data provenance is paper PMC10671498.
